Consider the following compounds and their measured max. CE (%) readings.
- Tested on: H1 human ES cells
- Measurement description: 6-well cloning efficiency assay in TeSR1 medium on Matrigel, colonies counted manually
- Type: cell-based
- Assay conditions: cloning efficiency = CFU per number of plated single cells; TeSR1, Matrigel
Where a name gives a salt, the structure may show the parent alone.
Experimental endpoint: max. CE (%)

compound="CC1CN(S(=O)(=O)c2cccc3cnccc23)CCN1 (centres unmarked)" assay_system="H1 human ES cells" value_modifier=< recorded_measurement=1
compound=Cl.N=C(N)NCCNS(=O)(=O)c1cccc2cnccc12 assay_system="H1 human ES cells" value_modifier=< recorded_measurement=1
compound="O=S(=O)(c1cccc2cnccc12)N1CCNCC1 [HA-100, hydrochloride]" assay_system="H1 human ES cells" value_modifier== recorded_measurement=2
compound="O=S(=O)(NCCNC/C=C/c1ccc(Br)cc1)c1cccc2cnccc12 [H-89, dihydrochloride]" assay_system="H1 human ES cells" value_modifier== recorded_measurement=2.5
compound="CC1CNCCN1S(=O)(=O)c1cccc2cnccc12 (centres unmarked)" assay_system="H1 human ES cells" value_modifier=< recorded_measurement=1
